Assay target: Protein smoothened (Mus musculus) (UniProt P56726)
Sequence (P56726 whole entry): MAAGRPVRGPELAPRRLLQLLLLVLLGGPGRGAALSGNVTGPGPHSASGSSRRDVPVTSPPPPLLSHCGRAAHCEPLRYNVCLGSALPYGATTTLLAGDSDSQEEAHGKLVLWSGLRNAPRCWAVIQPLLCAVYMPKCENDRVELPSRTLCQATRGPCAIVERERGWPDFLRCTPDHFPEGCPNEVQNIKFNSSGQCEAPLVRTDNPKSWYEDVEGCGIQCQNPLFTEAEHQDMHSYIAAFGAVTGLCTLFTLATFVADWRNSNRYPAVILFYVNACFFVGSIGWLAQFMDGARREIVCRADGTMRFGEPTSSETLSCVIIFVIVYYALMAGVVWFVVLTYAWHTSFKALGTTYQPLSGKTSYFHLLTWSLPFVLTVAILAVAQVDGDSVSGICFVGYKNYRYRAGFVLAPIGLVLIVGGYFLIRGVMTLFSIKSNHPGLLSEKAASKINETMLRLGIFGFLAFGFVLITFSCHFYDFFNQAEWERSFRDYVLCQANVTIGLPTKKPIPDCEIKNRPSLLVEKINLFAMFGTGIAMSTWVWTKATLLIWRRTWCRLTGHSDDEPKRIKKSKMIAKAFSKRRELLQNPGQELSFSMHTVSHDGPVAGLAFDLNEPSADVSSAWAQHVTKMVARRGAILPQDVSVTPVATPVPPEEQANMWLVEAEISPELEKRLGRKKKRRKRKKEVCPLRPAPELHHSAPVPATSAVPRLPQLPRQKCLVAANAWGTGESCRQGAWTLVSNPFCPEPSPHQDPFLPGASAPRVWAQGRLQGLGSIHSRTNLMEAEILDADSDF
Assay: Activity at Smo in mouse C3H10T1/2 cells assessed as induction of cell differentiation into osteoblast at 10 uM incubated for 6 days by alkaline phosphatase assay relative to GSA-10
Assay type: cell-based
Protocol conditions: C3H 10T1/2

>  <Compound>
CCCOC(=O)c1ccc(NC(=O)c2c(O)c3cc(C)ccc3n(CCC)c2=O)cc1

>  <Unit abbreviation>
%

>  <max activation>
85

$$$$
>  <Compound>
CCCCCn1c(=O)c(C(=O)Nc2ccc(C(=O)OCCC)cc2)c(O)c2ccccc21

>  <Unit abbreviation>
%

>  <max activation>
138

$$$$
>  <Compound>
CCCCCCn1c(=O)c(C(=O)Nc2cccc(C(=O)OCCC)c2C(F)(F)F)c(O)c2ccccc21

>  <Unit abbreviation>
%

>  <max activation>
1.4

$$$$
>  <Compound>
CCCCCCn1c(=O)c(C(=O)Nc2ccc(C(=O)OCC)cc2)c(O)c2ccccc21

>  <Unit abbreviation>
%

>  <max activation>
62

$$$$
>  <Compound>
CCCOC(=O)c1ccc(NC(=O)c2c(O)c3cc(F)ccc3n(CCC)c2=O)cc1

>  <Unit abbreviation>
%

>  <max activation>
98

$$$$

* * *

Assay target: Protein smoothened (Mus musculus, UniProt P56726)
Assay: Agonist activity at Smo in mouse NIH/3T3 cells transfected with Gli-dependent firefly luciferase reporter assessed as stimulation of Gli transcription factor
pEC50: −log10 of the molar value.

>  <Compound>
CN[C@H]1CC[C@H](N(Cc2cccc(-c3ccncc3)c2)C(=O)c2sc3ccccc3c2Cl)CC1

>  <Assay target>
Protein smoothened (Mus musculus, UniProt P56726)

>  <pEC50>
7.52

$$$$

* * *

Assay target: Protein smoothened (Mus musculus)
Assay: Activity at Smo in mouse C3H10T1/2 cells assessed as induction of cell differentiation into osteoblast at 10 uM incubated for 6 days by alkaline phosphatase assay relative to GSA-10
Format: cell-based
Protocol conditions: C3H 10T1/2
# reported max activation; entries follow

>  <Compound>
CCCCCn1c(=O)c(C(=O)Nc2ccc([N+](=O)[O-])cc2O)c(O)c2ccccc21

>  <max activation / %>
3

$$$$
>  <Compound>
CCCCCCn1c(=O)c(C(=O)Nc2cccc(C(=O)OCC)c2)c(O)c2ccccc21

>  <max activation / %>
1.7

$$$$
>  <Compound>
CCCCCCn1c(=O)c(C(=O)Nc2nc(CC(=O)OCC)cs2)c(O)c2ccccc21

>  <max activation / %>
3

$$$$
>  <Compound>
C=CCn1c(=O)c(C(=O)Nc2ccc(C(=O)OCCC)cc2)c(O)c2ccccc21

>  <max activation / %>
22

$$$$
>  <Compound>
CCCCCCn1c(=O)c(C(=O)Nc2ccc(OCC)cc2)c(O)c2ccccc21

>  <max activation / %>
1

$$$$
>  <Compound>
CCCCCCn1c(=O)c(C(=O)Nc2cccc(C(=O)OC(C)(C)C)c2)c(O)c2ccccc21

>  <max activation / %>
1.3

$$$$
>  <Compound>
CCCOC(=O)c1ccc(NC(=O)c2c(O)c3ccccc3n(C)c2=O)cc1

>  <max activation / %>
1

$$$$
>  <Compound>
CCCCCCn1c(=O)c(C(=O)Nc2cc(C)cc(C(=O)OCCC)c2)c(O)c2ccccc21

>  <max activation / %>
3

$$$$
>  <Compound>
CCCCCCn1c(=O)c(C(=O)Nc2ccc(C(=O)OCc3ccccc3)cc2)c(O)c2ccccc21

>  <max activation / %>
47

$$$$
>  <Compound>
CCCCCCn1c(=O)c(C(=O)Nc2ccc(C(=O)OCCCC)cc2)c(O)c2ccccc21

>  <max activation / %>
88

$$$$
>  <Compound>
CCCCCCn1c(=O)c(C(=O)Nc2ccc(C(=O)NCCCC)cc2)c(O)c2ccccc21

>  <max activation / %>
92

$$$$
>  <Compound>
CCCOC(=O)c1ccc(NC(=O)c2c(O)c3cc(OC)c(OC)cc3n(CCC)c2=O)cc1

>  <max activation / %>
138

$$$$
>  <Compound>
CCCCCCn1c(=O)c(C(=O)Nc2ccc(C(=O)NCCC)cc2)c(O)c2ccccc21

>  <max activation / %>
1.6

$$$$
>  <Compound>
c1ccc2c(Oc3nc(Nc4ccc(N5CCOCC5)cc4)c4ncn(C5CCCCC5)c4n3)cccc2c1

>  <max activation / %>
78

$$$$
>  <Compound>
CCCOC(=O)c1ccc(NC(=O)c2c(O)c3cccc4c3n(c2=O)CCC4)cc1

>  <max activation / %>
38

$$$$
>  <Compound>
CCOC(=O)c1ccc(NC(=O)c2c(O)c3ccccc3n(Cc3ccccc3)c2=O)cc1

>  <max activation / %>
4

$$$$
>  <Compound>
CCCOC(=O)c1ccc(NC(=O)c2c(O)c3cc(Cl)ccc3n(CCC)c2=O)cc1

>  <max activation / %>
41

$$$$
>  <Compound>
CCCCCCn1c(=O)c(C(=O)Nc2cccc(C(=O)OCCC)c2)c(O)c2ccccc21

>  <max activation / %>
2

$$$$
>  <Compound>
CCCOC(=O)c1ccc(NC(=O)c2c(O)c3ccccc3n(Cc3ccccc3)c2=O)cc1

>  <max activation / %>
7

$$$$

* * *

# reported max activation; entries follow
Assay target: UniProt P56726
Assay: Activity at Smo in mouse C3H10T1/2 cells assessed as induction of cell differentiation into osteoblast at 10 uM incubated for 6 days by alkaline phosphatase assay relative to GSA-10
Assay type: cell-based
Protocol conditions: C3H 10T1/2

>  <Compound>
CCCCCc1nc2ccccc2c(=O)n1NC(=O)c1c(O)c2ccccc2n(CC)c1=O

>  <Unit abbreviation>
%

>  <max activation>
5

$$$$
>  <Compound>
CCCCCCn1c(=O)c(C(=O)Nc2ncc([N+](=O)[O-])s2)c(O)c2ccccc21

>  <Unit abbreviation>
%

>  <max activation>
3

$$$$
>  <Compound>
CCCCCn1c(=O)c(C(=O)Nc2ccc(C(=O)OCC)cc2)c(O)c2ccccc21

>  <Unit abbreviation>
%

>  <max activation>
76

$$$$
>  <Compound>
CCCCCCn1c(=O)c(C(=O)Nc2ccc(C(=O)OC(C)(C)C)cc2)c(O)c2ccccc21

>  <Unit abbreviation>
%

>  <max activation>
69

$$$$
>  <Compound>
CCCCCCn1c(=O)c(C(=O)Nc2ccc(C(=O)OC(C)C)cc2)c(O)c2ccccc21

>  <Unit abbreviation>
%

>  <max activation>
33

$$$$
>  <Compound>
CCCCCCn1c(=O)c(C(=O)Nc2ccc(C(=O)O)cc2)c(O)c2ccccc21

>  <Unit abbreviation>
%

>  <max activation>
137

$$$$
>  <Compound>
CCCCCn1c(=O)c(C(=O)Nc2ccc(C(=O)OCCCC)cc2)c(O)c2ccccc21

>  <Unit abbreviation>
%

>  <max activation>
123

$$$$
>  <Compound>
CCCCCCn1c(=O)c(C(=O)Nc2ccc(C(N)=O)cc2)c(O)c2ccccc21

>  <Unit abbreviation>
%

>  <max activation>
1

$$$$
>  <Compound>
CCCCn1c(=O)c(C(=O)Nc2ccc(C(=O)OCCC)cc2)c(O)c2ccccc21

>  <Unit abbreviation>
%

>  <max activation>
135

$$$$

* * *

Assay target: Protein smoothened (Mus musculus)
Assay: Activity at Smo in mouse C3H10T1/2 cells assessed as induction of cell differentiation into osteoblast at 10 uM incubated for 6 days by alkaline phosphatase assay relative to GSA-10
Type: cell-based
Protocol conditions: C3H 10T1/2

>  <Compound>
CCCCCn1c(=O)c(C(=O)Nc2ccc([N+](=O)[O-])cc2)c(O)c2ccccc21

>  <max activation, %>
5

$$$$
>  <Compound>
CCCCCCn1c(=O)c(C(=O)Nc2ccc(C(=O)OCCC)c(Cl)c2)c(O)c2ccccc21

>  <max activation, %>
11

$$$$
>  <Compound>
CCCOC(=O)c1ccc(NC(=O)c2c(O)c3ccccc3n(CCC)c2=O)cc1

>  <max activation, %>
105

$$$$

Source: ChEMBL document CHEMBL3860037
